Listed sequences paired with reported PBM binding z-score
Test system: PPARg homodimer (NR concentration 180 nM)
Assay: PBM binding z-score (relative to random genomic background probes); higher = stronger binding; sequences stand for … in GC…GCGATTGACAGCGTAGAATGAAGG
property.name: PBM binding z-score

[[record]]
sequence_record = "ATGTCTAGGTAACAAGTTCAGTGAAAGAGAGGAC"
quantitative_result = 0.836

[[record]]
sequence_record = "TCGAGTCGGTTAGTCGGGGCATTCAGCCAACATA"
quantitative_result = -0.388

[[record]]
sequence_record = "ACTTACGGGTCAACGAGGGTATAGCACGCGTATA"
quantitative_result = 2.05

[[record]]
sequence_record = "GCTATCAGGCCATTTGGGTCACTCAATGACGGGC"
quantitative_result = 0.448

[[record]]
sequence_record = "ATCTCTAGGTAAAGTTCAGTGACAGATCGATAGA"
quantitative_result = 2.05

[[record]]
sequence_record = "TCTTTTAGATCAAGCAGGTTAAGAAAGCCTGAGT"
quantitative_result = -0.29

[[record]]
sequence_record = "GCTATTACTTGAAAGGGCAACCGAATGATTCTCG"
quantitative_result = 0.811

[[record]]
sequence_record = "CTCGAAAGGTCGGTTGAGGTGCGTATACGGATAA"
quantitative_result = 0.786

[[record]]
sequence_record = "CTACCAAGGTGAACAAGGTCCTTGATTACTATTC"
quantitative_result = 0.182

[[record]]
sequence_record = "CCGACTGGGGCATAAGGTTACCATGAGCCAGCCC"
quantitative_result = 0.331

[[record]]
sequence_record = "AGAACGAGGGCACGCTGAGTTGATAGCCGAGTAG"
quantitative_result = 0.0307

[[record]]
sequence_record = "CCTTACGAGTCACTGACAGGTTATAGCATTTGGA"
quantitative_result = 1.1

[[record]]
sequence_record = "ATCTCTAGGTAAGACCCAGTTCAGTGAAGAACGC"
quantitative_result = 0.695

[[record]]
sequence_record = "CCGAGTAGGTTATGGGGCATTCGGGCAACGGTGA"
quantitative_result = 0.492

[[record]]
sequence_record = "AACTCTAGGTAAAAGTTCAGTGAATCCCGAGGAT"
quantitative_result = 1.93

[[record]]
sequence_record = "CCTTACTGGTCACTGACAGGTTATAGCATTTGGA"
quantitative_result = 1.46

[[record]]
sequence_record = "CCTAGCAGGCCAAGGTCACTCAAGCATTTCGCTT"
quantitative_result = 1.92

[[record]]
sequence_record = "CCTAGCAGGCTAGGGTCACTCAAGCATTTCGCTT"
quantitative_result = 1.58

[[record]]
sequence_record = "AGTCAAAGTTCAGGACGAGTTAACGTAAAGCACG"
quantitative_result = 1.18

[[record]]
sequence_record = "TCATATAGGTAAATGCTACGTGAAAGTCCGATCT"
quantitative_result = 0.811

[[record]]
sequence_record = "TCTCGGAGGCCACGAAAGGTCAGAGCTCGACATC"
quantitative_result = 2.29

[[record]]
sequence_record = "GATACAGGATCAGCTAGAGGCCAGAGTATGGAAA"
quantitative_result = -0.609

[[record]]
sequence_record = "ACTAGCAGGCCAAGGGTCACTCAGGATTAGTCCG"
quantitative_result = 4.08

[[record]]
sequence_record = "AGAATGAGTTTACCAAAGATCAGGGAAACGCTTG"
quantitative_result = -0.566

[[record]]
sequence_record = "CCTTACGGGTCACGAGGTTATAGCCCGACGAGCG"
quantitative_result = 3.14

[[record]]
sequence_record = "GATACAGGGTCAGCTAGAGGCCACAGTATGGAAA"
quantitative_result = 2.57


The measured values listed here are drawn from the supplement of paper PMC6555819.
